assay: Excipient selection based on active compound solubility screening; type: physicochemical; settings: filtrate of excipient solution in water, 37 °C, water, thermodynamic from solid, magnesium stearate < 1 mg/ml; 37° C.; read-out: COMPOUND A Solubility
readoutKind: solubility at 5 min

Problem: # query: solubility at 5 min of entry CN1N=C2CCN(C(=O)[C@@H](COCc3ccccc3)NC(=O)C(C)(C)N)C[C@@]2(Cc2ccccc2)C1=O.O=C(O)C(O)C(O)C(=O)O [Compound A]
Solution: > 150 mg/mL

* * *

assay: Solubility and osmotic pressure of the active compound (statement); format: physicochemical; settings: water
readoutKind: solubility

Problem: # query: solubility of entry `CN1N=C2CCN(C(=O)[C@@H](COCc3ccccc3)NC(=O)C(C)(C)N)C[C@@]2(Cc2ccccc2)C1=O.O=C(O)C(O)C(O)C(=O)O`
Solution: > 150 mg/mL

* * *

assay: Excipient selection based on active compound solubility screening; format: physicochemical; settings: filtrate of excipient solution in water, 37 °C, aqueous buffer, thermodynamic from solid, tartaric acid solution 50 mg/ml (below saturation); 37° C.; read-out: COMPOUND A Solubility
readoutKind: solubility at 5 min

Problem: # query: solubility at 5 min of entry `CN1N=C2CCN(C(=O)[C@@H](COCc3ccccc3)NC(=O)C(C)(C)N)C[C@@]2(Cc2ccccc2)C1=O.O=C(O)C(O)C(O)C(=O)O`
Solution: > 150 mg/mL

* * *

experiment: Excipient selection based on active compound solubility screening; type: physicochemical; settings: filtrate of excipient solution in water, 37 °C, aqueous with cosolvent or surfactant or cyclodextrin, thermodynamic from solid, sulfobutylether cyclodextrin; read-out: active compound substance solubility
readoutKind: solubility at 5 min

Problem: # query: solubility at 5 min of entry `CN1N=C2CCN(C(=O)[C@@H](COCc3ccccc3)NC(=O)C(C)(C)N)C[C@@]2(Cc2ccccc2)C1=O.O=C(O)C(O)C(O)C(=O)O`
Solution: 100 to 150 mg/mL

* * *

experiment: Osmotic agent selection based on active compound solubility screening; assay type: physicochemical; settings: filtrate of saturated lactose solution in water, 37 °C, aqueous with cosolvent or surfactant or cyclodextrin, saturated lactose solution, approx. 200 mg/ml, read-out: COMPOUND A Solubility
readoutKind: solubility at 5 min

Problem: # query: solubility at 5 min of entry `CN1N=C2CCN(C(=O)[C@@H](COCc3ccccc3)NC(=O)C(C)(C)N)C[C@@]2(Cc2ccccc2)C1=O.O=C(O)C(O)C(O)C(=O)O`
Solution: > 150 mg/mL

* * *

test: Excipient selection based on active compound solubility screening; format: physicochemical; conditions: filtrate of excipient solution in water, 37 °C, aqueous buffer, thermodynamic from solid, saturated succinic acid solution, approx. 80 mg/ml; 37° C.; read-out: COMPOUND A Solubility
readoutKind: solubility at 5 min

Problem: # query: solubility at 5 min of entry CN1N=C2CCN(C(=O)[C@@H](COCc3ccccc3)NC(=O)C(C)(C)N)C[C@@]2(Cc2ccccc2)C1=O.O=C(O)C(O)C(O)C(=O)O [Compound A]
Solution: > 150 mg/mL

* * *

assay: Excipient selection based on active compound solubility screening; assay type: physicochemical; conditions: filtrate of excipient solution in water, 37 °C, aqueous with cosolvent or surfactant or cyclodextrin, thermodynamic from solid, cyclodextrin, sulfobutylether solution, approx. 1000 mg/ml; 37° C.; read-out: COMPOUND A Solubility
readoutKind: solubility at 5 min

Problem: # query: solubility at 5 min of entry `CN1N=C2CCN(C(=O)[C@@H](COCc3ccccc3)NC(=O)C(C)(C)N)C[C@@]2(Cc2ccccc2)C1=O.O=C(O)C(O)C(O)C(=O)O`
Solution: 100 to 150 mg/mL
